Taken from PubChem BioAssay AID1159580.

protocol summary: chemical genetic growth profiling, strain panel (AID 1159580);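 note: tested at 20 µM; growth read once vehicle control cultures reached saturation at 30 °C; 1 = growth at the plate median or of vehicle wells; lower values mean less growth of the strain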
assay setup: S. cerevisiae deletion strains, growth OD, locus YNL298W, strain CLA4 (second series), stronger effect = lower value
Among all 5,500 compounds or so, about 2,000 (36%) were called active. Another 18% or so got no clear call; they are omitted. Some of the results follow.
value type: normalized growth
In your answer, state the number alone without any accompanying words.

I am curious: what normalized growth value has been reported for CSC(=NC#N)N1CCN(c2ccc([N+](=O)[O-])cn2)CC1 ? 0.978

Next molecule: CC(=O)c1ccc(-c2cccs2)s1 0.901

Same lookup for CC(/C=N\O)=N/Nc1ccccc1 , please. 0.923
